Target desc: IGF2 (Homo sapiens, UniProt P01344)
Sequence (P01344 25-91): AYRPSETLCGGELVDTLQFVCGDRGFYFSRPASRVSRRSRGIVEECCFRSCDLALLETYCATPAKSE
Procedure details: SPR (Biacore T200) of recombinant IGF2R domain 11 mutants on immobilised biotinylated IGF2
Type: binding
Parameters: purchased GroPep
Condition notes: Table 1; 25° C., HBS-EP pH 7.4
Metric name: Kinetics koff

>  <Molecule>
W1546F: domain 11 AB5 with W1546F in the AB loop (protein) MKSNEHDDCQVTNPSTGHLFDLSSLSGRAGFTAAYAKGFGVYMSICGENENCPPGVGACFGQTRISVGKANKRLRYVDQVLQLVYKDGSPCPSKSGLSYKSVISFVCRPEAGPTNRPMLISLDKQTCTLFFSWHTPLACEQATECSV

>  <Metric name>
Kinetics koff

>  <Result value>
0.0180 s⁻¹

$$$$
>  <Molecule>
G1603K: domain 11 AB5 background + FG loop G1603K (protein) MKSNEHDDCQVTNPSTGHLFDLSSLSGRAGFTAAYAKGWGVYMSICGENENCPPGVGACFGQTRISVGKANKRLRYVDQVLQLVYKDGSPCPSKSKLSYKSVISFVCRPEAGPTNRPMLISLDKQTCTLFFSWHTPLACEQATECSV

>  <Metric name>
Kinetics koff

>  <Result value>
0.0121 s⁻¹

$$$$
>  <Molecule>
Q1632A: domain 11 HI loop mutant Q1632A, probably AB5 background (protein) MKSNEHDDCQVTNPSTGHLFDLSSLSGRAGFTAAYAKGWGVYMSICGENENCPPGVGACFGQTRISVGKANKRLRYVDQVLQLVYKDGSPCPSKSGLSYKSVISFVCRPEAGPTNRPMLISLDKATCTLFFSWHTPLACEQATECSV

>  <Metric name>
Kinetics koff

>  <Result value>
0.0167 s⁻¹

$$$$
>  <Molecule>
S1600V: domain 11 AB5 background + FG loop S1600V (protein) MKSNEHDDCQVTNPSTGHLFDLSSLSGRAGFTAAYAKGWGVYMSICGENENCPPGVGACFGQTRISVGKANKRLRYVDQVLQLVYKDGSPCPVKSGLSYKSVISFVCRPEAGPTNRPMLISLDKQTCTLFFSWHTPLACEQATECSV

>  <Metric name>
Kinetics koff

>  <Result value>
>0.2 s⁻¹

$$$$
>  <Molecule>
G1603A: domain 11 AB5 background + FG loop G1603A (protein) MKSNEHDDCQVTNPSTGHLFDLSSLSGRAGFTAAYAKGWGVYMSICGENENCPPGVGACFGQTRISVGKANKRLRYVDQVLQLVYKDGSPCPSKSALSYKSVISFVCRPEAGPTNRPMLISLDKQTCTLFFSWHTPLACEQATECSV

>  <Metric name>
Kinetics koff

>  <Result value>
0.0183 s⁻¹

$$$$

IN: Please look up its Kinetics koff: AB3: IGF2R domain 11 with AB loop mutations E1544K, K1545S, L1547V (YSKSGV) (protein) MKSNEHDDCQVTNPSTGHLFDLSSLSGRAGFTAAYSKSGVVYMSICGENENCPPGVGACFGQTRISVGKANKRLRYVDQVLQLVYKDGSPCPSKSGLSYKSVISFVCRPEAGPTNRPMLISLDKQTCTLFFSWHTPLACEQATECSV
OUT: 0.044 s⁻¹
